test: NCI Yeast Anticancer Drug Screen. Data for the mlh1 rad18 strain (AID 175); conditions: S. cerevisiae mlh1 rad18 strain growth inhibition; at 5.0 µM (retest, dose inferred, filed as 0.5); hits give high values
Compounds without any hit were thinned out: in the full panel of roughly 79,000, 15% have a hit.
PARAMETER: growth inhibition (%)

COMPOUND	UNIT OF MEASUREMENT	REPORTED MEASUREMENT
COc1cc2c(c(OC)c1OC)-c1ccc(O)c(=O)cc1C(N=Cc1ccccc1)CC2 (stereo not given)	%	-2
C=C(CN(C)C)C(=O)c1ccc(Oc2ccccc2)cc1	%	98
O=C(Oc1ccc(/C=C/[n+]2ccccc2)c(OC(=O)c2ccccc2)c1)c1ccccc1	%	7
N#CC1(C#N)C2C=CC(c3coc4cccc2c34)C1(C#N)C#N (stereo not given)	%	26
CC1CCC2(OC1)OC1CC3C4CCC5CC(OC6OC(COC7OC(CO)C(O)C(O)C7O)C(OC7OC(C)C(O)C(O)C7O)C(O)C6OC6OC(CO)C(O)C(O)C6O)CCC5(C)C4CCC3(C)C1C2C (stereo not given)	%	2
CCN(CC)CCOc1ccc(C(=C2CCCCC2)c2ccc(OCCN(CC)CC)cc2)cc1	%	28
CCCCC#CC(=O)OCCCCC	%	-2
NSc1ccccn1	%	4
Cc1nn(-c2ccc(Cl)cc2)c2nc(N)nc(N)c12	%	0
Nc1ccc2c(c1)[nH]c(=O)c1ccc(Cl)cc12	%	-56

---

assay: NCI Yeast Anticancer Drug Screen. Data for the bub3 strain (AID 167); settings: S. cerevisiae bub3 mutant strain, at 5.0 µM (retest, dose inferred, filed as 0.5)
About 79,000 compounds went through this panel and 15% of them were active in at least one assay; those are over-represented in the sample as a whole. Activity calls are given as the source filed them. No stated cut-off is given here; in the data, active means growth inhibition above about 70%; inactive means the rest.
Outcome codes: 1 (active), 0 (inactive)

COMPOUND	LABEL VALUE
CCN(CC)CCCC(C)Nc1cc(O)c2c(c1O)C(=O)c1ccccc1C2=O (configuration not stated)	1
CC(=O)N(c1ccccc1)C(C)C	0
C=CC(=O)NC(C)C	0
[Cl][Sn]1([Cl])[CH2]CC[CH2][Sn]([Cl])([Cl])[CH2]CC[CH2][Sn]([Cl])([Cl])[CH2]CC[CH2][Sn]([Cl])([Cl])[CH2]CC[CH2]1	0
O=C(CCCCCCCCCCc1ccccc1)c1c(O)cccc1O	0
Oc1c(Cl)cccc1-c1ccccc1	0
N#CSCC(=O)c1ccccc1	1
C=CCOc1ccc(/C=N/NC(N)=S)cc1	0
CN(C)c1ccc2c(c1)N(C)c1ccccc1C2(Cl)c1ccccc1 (configuration not stated)	1
CCC[CH2][Sn]([Cl])([CH2]CCC)[S]/C(C#N)=N/N=C/c1ccc(N(C)C)cc1	1
O=C(COc1ccc(Cl)c(Cl)c1)Nc1ccc[n+](Cc2ccc(Cl)c(Cl)c2)c1	0
c1ccc(-c2n[nH]c3c4ccccc4c4ccccc4c23)cc1	0
S=C(Nc1ccccc1)[S][Sb]([S]C(=S)Nc1ccccc1)[c]1ccccc1	0
BrCc1ccccc1C[P+](c1ccccc1)(c1ccccc1)c1ccccc1	0
S=C(NCc1ccccc1)N/N=C/c1ccccn1	0
Nc1cc(Cl)ccc1SSc1ccc(Cl)cc1N	0
O=C(O)C1(Cc2ccc3c(c2)CCC3)Cc2ccccc2C1=O (configuration not stated)	0
COC(=O)C(=O)C(=O)C1CCCC(c2ccccc2)C1=O (configuration not stated)	0
CSC(=S)n1nc(-c2cccs2)c(N=Nc2ccccc2)c1C(F)(F)F	0
CCN1CCC(O)(/C=C/c2ccc(Cl)c(Cl)c2)C(C(=O)/C=C/c2ccc(Cl)c(Cl)c2)C1 (configuration not stated)	1
O=C(O)C(SC1=NNC2(C(=O)N1)c1ccccc1-c1ccccc12)SC1=NNC2(C(=O)N1)c1ccccc1-c1ccccc12	0
COc1ccccc1OCC(COC(=O)Nc1ccc(C)cc1)OC(=O)Nc1ccc(C)cc1 (configuration not stated)	0
CC(=O)NC1CCCCC1CC1CCCCC1 (configuration not stated)	0
O=C1OCCCOC(=O)c2cc(ccc2O)OCC#CC#CCOc2ccc(O)c1c2	0
C/C(=N/NC(=S)N1CCCC1)c1cccc(/C(C)=N\NC(=S)N2CCCC2)n1	0
Oc1c(Cl)ccc2cccnc12	1
COc1cccc2c1S(=O)(=O)C(c1ccccc1)=CC2=O	0
CC(=O)O[C@@H]1CC(C)C2CC2C2=C(C(O)OC2O)[C@@H]1C(C)CCC=C(C)C (some centres not stated)	1
Cn1cc(NC(=O)c2cc(NC(=O)CCCCCCC(=O)Nc3cc(C(=O)Nc4cc(C(=O)NCCC(=N)N)n(C)c4)n(C)c3)cn2C)cc1C(=O)NCCC(=N)N	1
O=C1c2ccccc2C(=O)C2OC12 (configuration not stated)	1
O=C(CCl)[O][Bi]([O]C(=O)CCl)([c]1ccccc1)([c]1ccccc1)[c]1ccccc1	0
CC(C)(C)C1CCC(SCCO)CC1 (configuration not stated)	0
C1=CN2C(c3ccccc3)=NN(c3ccccc3)[C@@H]2c2ccccc21	0
CN(C)CCCNc1cc(O)c2c(c1O)C(=O)c1ccccc1C2=O	0
CC(C)(C)OC(=O)CSC#N	0
Oc1c(Cl)c(Cl)c2ncccc2c1Cl	0
CC1=NN(c2nc(N)nc(NS(=O)(=O)c3cc(C)c(Cl)cc3S)n2)C(C)(C)C1	0
CCOC(=O)c1c(Br)c(-c2ccc(Br)cc2)c(Br)n1C	0
CN(C)C1CCC2C3CCC4=CC(=O)CCC4(C)C3CCC21C (configuration not stated)	0
Cc1c(N)nc(C2CC(=O)N2CC(N)C(N)=O)nc1C(=O)NC(C(=O)NC(C)C(O)C(C)C(=O)NC(C(=O)NCCc1nc(-c2nc(C(=O)NCCNCC(C)O)cs2)cs1)C(C)O)C(OC1OC(CO)C(O)C(O)C1OC1OC(CO)C(O)C(OC(N)=O)C1O)c1cnc[nH]1 (configuration not stated)	1
COc1ccc(C(=O)C(c2ccc(OC)cc2)C2(O)C(=O)Nc3c(Cl)cc(Cl)cc32)cc1 (configuration not stated)	0
CC(=O)Nc1ccc(S(=O)(=O)N/N=C/c2cc(I)cc([N+](=O)[O-])c2O)cc1	0

---

Assay: NCI Yeast Anticancer Drug Screen. Data for the rad50 strain (AID 155);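 note: 0% = growth of vehicle-only cultures of the same strain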
Details: S. cerevisiae rad50 strain growth inhibition; at 50.0 µM; hits give high values
Procedure: Growth inhibition of yeast strains with defined genetic alterations is measured as a screen for potential anti-cancer activity. Selected strains with alterations in DNA damage repair or cell cycle control were exposed to compounds and growth inhibition was measured relative to vehicle treated controls. The strain used in this assay is rad50
The panel holds about 79,000 compounds, 15% with a hit somewhere; the sample as a whole holds those more often.
Values of growth inhibition greater than or equal to 60% map to TRUE; values below map to FALSE.

> print(dat)
                                    compound  label.value
 1  COc1cc(/C=C2/N=C(c3ccccc3)N(C3=NNC4(C(=O)N3)c3ccccc3-c3ccccc34)NC2=O)ccc1O        FALSE
 2  N#CC(Cl)CS(=O)(=O)c1ccccc1 (configuration not stated)         TRUE
 3                Cc1ccc(C)c([N+](=O)[O-])c1        FALSE
 4               COC1=CC(=O)c2ncc(Cl)cc2C1=O         TRUE
 5              Nc1nc(-c2cc3cc(Cl)ccc3o2)cs1        FALSE
 6                       Oc1c(Br)cc(Cl)cc1Br         TRUE
 7  CN1C=C(C#N)CCC1Sc1ccc(Cl)cc1 (configuration not stated)        FALSE
 8  COC(=O)C1CCC(=O)N1C(c1ccc(OC)cc1)c1cc(OC)c(OC)c(OC)c1 (configuration not stated)        FALSE
 9       CCCCCCCCCCCCCCCc1nc(SCC(=O)O)n[nH]1        FALSE
10  CC(Br)C(=O)c1ccc(OCc2ccccc2)cc1 (configuration not stated)         TRUE
11           CN(C)C(=S)NC(=S)Nc1ccc2ccccc2c1         TRUE
12  CN(C)CCNc1ccc([N+](=O)[O-])c2nc3ccccc3c(N)c12        FALSE

---

experiment: NCI Yeast Anticancer Drug Screen. Data for the mec2-1 strain (AID 157); settings: S. cerevisiae mec2-1 strain, at 5.0 µM (retest, dose inferred, filed as 0.5), hits give high values
The panel holds about 79,000 compounds, 15% with a hit somewhere; the sample as a whole holds those more often.
PARAMETER: growth inhibition (%)

> print(dat)
                                    molecule          parameter  unit.of.measurement  reported.measurement
 1              COC(=O)/C(Br)=C(\Br)c1ccccc1  growth inhibition                    %                     6
 2  O=C1c2cc([N+](=O)[O-])ccc2-c2cc([N+](=O)[O-])ccc21  growth inhibition                    %                    39
 3                     CCCCCCCCNC(=O)C(Cl)Cl  growth inhibition                    %                   -27
 4   O=C(OCCN=c1c2ccccc2ccc2ccccc12)c1ccccc1  growth inhibition                    %                   -14
 5  CCC[CH2][Sn]([CH2]CCC)([O]C(=O)Cc1ccc(F)cc1)[O]C(=O)Cc1ccc(F)cc1  growth inhibition                    %                    30
 6  COc1ccc(C2CC(c3c(O)ccc4ccccc34)=NN2)cc1OC (stereo unspecified)  growth inhibition                    %                    -3
 7  CC(C)C(Cl)CC/C(CBr)=C(\Cl)CCl (stereo unspecified)  growth inhibition                    %                    29
 8  CC(NC(=O)OCc1ccccc1)C(=O)NC(Cc1ccccc1)C(=O)OCc1ccccc1 (stereo unspecified)  growth inhibition                    %                    37
 9  Nc1ccc(C(=O)Nc2ccc(C(=O)Nc3ccc(/C=C/c4ccc(NC(=O)c5ccc(N)cc5)cc4S(=O)(=O)O)c(S(=O)(=O)O)c3)cc2)cc1  growth inhibition                    %                   -21
10                       Nc1ccc(Cl)c2cccnc12  growth inhibition                    %                     4
11  O=C1/C(=C\c2ccc(Cl)cc2Cl)Sc2scc(-c3ccc(O)c(O)c3)[n+]21  growth inhibition                    %                     6
